Consider the following compounds; for each one, report its Activity.
Tested on: SW-620
Assay: Growth inhibition of human SW620 cells assessed tumor cell growth at 10^-5 M
Type: functional
Set-up: scale not given: the % may be the effect or the level left
Form field: result (number plus unit)

{"columns": ["SMILES RECORD", "Activity"],
 "data": [
  ["CC1=NN(c2cccc(Cl)c2)C(=O)/C1=C\\c1cn(Cc2ccccc2)c2ccccc12", "93.2%"],
  ["O=C1/C(=C\\c2coc3ccccc3c2=O)c2ccccc2N1c1c(Cl)cccc1Cl", "35%"]
]}

Data request, read-out Activity, for C=CCn1cc(/C=C2\C(=O)N(c3cccc(Cl)c3)N=C2C)c2ccccc21
97.77%

Values compiled from ChEMBL document CHEMBL1811814.
